- targetOrSystem: Cytochrome P450 3A4 (Homo sapiens)
- protocolDescription: qHTS Assay for Inhibitors and Substrates of Cytochrome P450 3A4 (AID 884); also: nearly all actives have a fitted effect of over 50% in size
- particulars: recombinant CYP3A4, Luciferin-PPXE luminescence; series mostly up to 57.1 µM
- Description: NIH Molecular Libraries Screening Centers Network [MLSCN] NIH Chemical Genomics Center [NCGC] The P450 gene superfamily is involved in the metabolism and clearance of xenobiotics. […] The luciferin is then measured by luminescence after the addition of a luciferase detection reagent. […] Inhibitors and some substrates limit the production of luciferin, and decrease measured luminescence. […]
Inconclusive results are not listed. The source made the active and inactive calls. Calls follow the shape of the dose curve; as a rule, active = well fitted inhibition curve with a large enough effect; inconclusive = small, poorly fitted or top-dose-only effect; inactive = no such curve, though single readings can be large or run the other way.
Outcome codes: active, inactive

- NC/C=C\C(=O)O: inactive
- O=C(O)C1=CCNCC1: inactive
- CC(C)(C)c1ccc(/C=C/C(=O)Nc2ccc3c(c2)OCCO3)cc1: inactive
- CN(C)S(=O)(=O)c1ccc2c(c1)/C(=C/c1cc3c([nH]1)CCCC3)C(=O)N2: active
- CN(C)CCC(c1ccc(Br)cc1)c1ccccn1 (centres undefined): inactive
- Cc1nc(N=Nc2cc(S(=O)(=O)O)c3cc([N+](=O)[O-])cc(S(=O)(=O)O)c3c2)c(COP(=O)(O)O)c(C=O)c1O: inactive
- CC(C)(CO)Cc1cc(C(C)(C)C)c(O)c(C(C)(C)C)c1: active
- Nc1nc2c(cnn2CCc2ccccc2)c2nc(-c3ccco3)nn12: active
- N[C@@H](Cc1ccc(O)c(I)c1)C(=O)O: inactive
- Cc1ccc([N+](=O)[O-])cc1S(=O)(=O)N(C)C: inactive
- O=C1OC(=O)C2C3CCC(O3)C12 (centres undefined): inactive
- CCCCCCCCCCC/C=C\C(C)(C)/C=C\CCCC(=O)O: inactive
- NCCCCN: inactive
- O=C(O)c1cc2cc(F)ccc2[nH]1: inactive
- Cn1c(=O)c2[nH]c(C3CCCC3)nc2n(C)c1=O: active
- CCCCCCCCCCC(C)(C)C(=O)Nc1c(OC)cc(OC)cc1OC: active
- N=C(N)SCCN: active
- Nc1ncnc2c1c(-c1ccc(Oc3ccccc3)cc1)cn2C1CCCC1: inactive
- CCCc1c(-c2ccc(O)cc2)nn(-c2ccc(O)cc2)c1-c1ccc(O)cc1: active

* * *

- targetOrSystem: Calcium and integrin-binding protein 1 (Homo sapiens)
- protocolDescription: Validation qHTS for Identification of Calcium Integrin Binding protein 1 (CIB1) Competitor (AID 1508618)
- particulars: CIB1-GST / FITC-alphaIIb peptide fluorescence polarization; series mostly up to 114 µM
Inconclusive results are not listed. Active and inactive are the calls of the source. Calls come from the whole dose curve; as a rule, active = well fitted curve in the direction sought with a large enough effect; inconclusive = small, poorly fitted or top-dose-only effect, or another doubt; inactive = no such curve, though single readings can be large or run the other way. Residues, ends and D or L forms follow the SMILES beside them. *: point of attachment. Cbz = O=C(OCc1ccccc1)*
Outcome codes: active, inactive

- O=C(O)[C@H]1NCCC[C@H]1C(=O)O: inactive
- COC(=O)C(N)Cc1ccc(Cl)cc1 (stereo not given): inactive
- Cc1nc2n(c(=O)c1CCN1CCC(c3noc4cc(F)ccc34)CC1)CCCC2O (stereo not given): inactive
- Cc1ccccc1/C=C/C1=NCCN1: inactive
- CC(C)[C@H](NC(=O)OCc1ccccc1)C(=O)N[C@H](C=O)Cc1ccccc1 (Cbz-Val-Phe-aldehyde): inactive
- c1ccc(C(NCCNC(c2ccccc2)c2ccccc2)c2ccccc2)cc1: inactive
- CC1=C(C(=O)O)N2C(=O)[C@@H](NC(=O)C(N)C3=CCC=CC3)[C@H]2SC1 (stereo not given in full): inactive
- Nc1nc2c(cnn2CCc2ccccc2)c2nc(-c3ccco3)nn12: inactive
- NCC(O)C1CCCCCCC1 (stereo not given): inactive
- CC(=O)/C(C)=N/O: inactive
- NCCNS(=O)(=O)c1cccc2c(Cl)cccc12: inactive
- CC[C@@H]1Cc2cc(O)ccc2C2=C1c1ccc(O)cc1C[C@H]2CC: inactive
- Oc1cc2c(cc1O)C(c1ccccc1)CNCC2 (stereo not given): inactive
- [N-]=[N+]=Nc1ccc(C(=O)CSC[C@H](NC(=O)CC[C@H](N)C(=O)O)C(=O)NCC(=O)O)cc1: inactive
- N#CC(C#N)=C(N)/C(C#N)=C/c1ccc(O)cc1: inactive
- OC[C@H]1NC[C@@H](O)[C@@H]1O: inactive
- N[C@@H](Cc1c[nH]c2ccccc12)C(=O)O: inactive
- Nc1ccc2c3c(cccc13)C(=O)NC2=O: active
- Oc1ccc(/C=C/c2ccc(/C=C/c3ccc(O)cc3)c(Br)c2)cc1: inactive
- O=C(O)C1CN(CCCP(=O)(O)O)CCN1 (stereo not given): inactive
- COc1cc(CC(=O)O)ccc1O: inactive
- CCCCCCN(CCCCCC)C(=O)Cc1c(-c2ccc(F)cc2)[nH]c2ccccc12: inactive
- COc1ccc2c(c1)c(CC(=O)O)c(C)n2C(=O)c1ccccc1: inactive
- c1ccc(C(NCc2cccnc2)(c2ccccc2)c2ccccc2)cc1: inactive
- CN1CCc2cc(Cl)c(O)cc2[C@@H](c2ccccc2)C1: inactive

* * *

- protocolDescription: qHTS for differential inhibitors of proliferation of Plasmodium falciparum line W2 (AID 1883);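 also: parasites grown with compound for 72 h before lysis and staining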
- particulars: Plasmodium falciparum W2 proliferation inhibition; series mostly up to 28.7 µM
Records with an inconclusive call do not appear. The source made the active and inactive calls. The call rests on the fitted dose curve; in most records, active means well fitted curve in the direction sought with a large enough effect; inconclusive means small, poorly fitted or top-dose-only effect, or another doubt; inactive means no such curve, though single readings can be large or run the other way.
Outcome codes: active, inactive

- COc1cc(C(O)CO)ccc1O (configuration not stated): inactive
- CCC1(O)CC2CN(CCc3c([nH]c4ccccc34)[C@@](C(=O)OC)(c3cc4c(cc3OC)N(C)C3[C@]45CCN4CC=C[C@@](CC)([C@@H](OC(C)=O)[C@]3(O)C(=O)OC)[C@H]45)C2)C1 (some centres not stated): active
- NC(Cc1cccc(-c2ccccc2CP(=O)(O)O)c1)C(=O)O (configuration not stated): inactive
- C=C1C(=O)O[C@@H]2[C@H]3O[C@]3(C)CCC=C(C)CC[C@@H]12: active
- c1ccc2c(c1)CC(N1CCN(c3cccc4c3OCCO4)CC1)C2: active
- N=C(N)c1ccc(OCCCCCOc2ccc(C(=N)N)cc2)cc1 (tested in a mixture with another compound): active
- C=CC[C@H](N)C(=O)O: inactive
- CC1=C(C(=O)O)N2C(=O)[C@@H](NC(=O)C(N)C3=CCC=CC3)[C@H]2SC1 (some centres not stated): inactive
- NCCS(=O)O: inactive
- NCCC1CCCC(CCN)N1 (configuration not stated): inactive
- CC(=O)C(C)=O: inactive
- COc1ccc(CCN(C)CCc2ccc(OC)c(OC)c2)cc1OC: active

* * *

- protocolDescription: qHTS for differential inhibitors of proliferation of Plasmodium falciparum line D10 (AID 1877);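 also: parasites grown with compound for 72 h before DNA staining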
- particulars: series mostly up to 28.7 µM
Results filed as inconclusive are left out. The source made the active and inactive calls. The call rests on the fitted dose curve; in most records, active means well fitted curve in the direction sought with a large enough effect; inconclusive means small, poorly fitted or top-dose-only effect, or another doubt; inactive means no such curve, though single readings can be large or run the other way.
Outcome codes: class 1 for active, class 0 for inactive

• OC[C@H]1NC[C@@H](O)[C@@H]1O = class 0
• Nc1ncnc2c1ncn2C1CCCO1 (stereo not drawn) = class 0
• CN(C)S(=O)(=O)c1ccc2c(c1)/C(=C/c1cc3c([nH]1)CCCC3)C(=O)N2 = class 1
• [Li+] = class 0
• NS(=O)(=O)c1cccc2c1c([N+](=O)[O-])cc1nc(O)c(O)nc12 = class 0
• O=C(O)C1CN(CCCP(=O)(O)O)CCN1 (stereo not drawn) = class 0
• Nc1ccc(-c2ccc3ccccc3n2)cc1 = class 0
• CC(=O)C(C)=O = class 0
• CCCCCCN(CCCCCC)C(=O)Cc1c(-c2ccc(F)cc2)[nH]c2ccccc12 = class 1
• O=C(O)Cc1c[nH]c2ccc(O)cc12 = class 0
• Nc1ccc(N2C(=O)c3ccccc3C2=O)c(Cl)c1 = class 0
• CN1CCCC1CCOC(C)(c1ccccc1)c1ccc(Cl)cc1 (stereo not drawn) = class 1
• N#Cc1cc2nc(O)c(O)nc2cc1[N+](=O)[O-] = class 0

* * *

viability change values, listed per item
- protocolDescription: Nrf2 qHTS screen for inhibitors: Validation (AID 493153)
- particulars: A549 ARE-Fluc reporter, 18-24 h; measured here: cytotoxicity max response
Results filed as inconclusive are left out. Residues, ends and D or L forms follow the SMILES beside them. *: point of attachment. Cbz = O=C(OCc1ccccc1)*
recordedMetric: viability change (%)

- COc1ccc2c(c1)CCC1C2CC[C@@]2(C)C1CC[C@@H]2NCCCCCCN1C(=O)C=CC1=O (some centres undefined): -5.2
- O=c1ccc2c(OCCCCc3ccccc3)c3ccoc3cc2o1: 4.36
- CCCCCCCCCCC/C=C\C(C)(C)/C=C\CCCC(=O)O: 3.47
- COc1ccc(C(=O)NCc2cccnc2)cc1C(=O)NCc1cccnc1: -5.34
- C=CC[C@H](N)C(=O)O: -2.69
- COc1ccc(CCN(C)CCc2ccc(OC)c(OC)c2)cc1OC: 4.35
- CC(C)[C@H](NC(=O)OCc1ccccc1)C(=O)N[C@H](C=O)Cc1ccccc1 (Cbz-Val-Phe-aldehyde): 13.7
- CCCCC[C@H](CC(=O)NO)C(=O)N[C@H](C(=O)N1CCC[C@H]1CO)C(C)C: 2.77
- CCN(c1nc(N)c(C(=O)N=C(N)N)nc1Cl)C(C)C: -6.66
- Cn1cc(C(F)(F)F)nc1-c1ccc(OCC(O)CNCCOc2ccc(O)c(C(N)=O)c2)cc1 (centres undefined): 6.58
- C[C@@]1(C2CCCC2)Cc2cc(OCC(=O)O)c(Cl)c(Cl)c2C1=O: -4.41
- CN1C2CCC1CC(OC(c1ccccc1)c1ccccc1)C2 (centres undefined): -14.9
- N[C@H]1CONC1=O: 1.32
- CSC(N)=NCCC[C@H](N)C(=O)O: -16.2
- CCN(CC)CCOC(=O)c1cc(Cl)c(N)cc1OC: 2.46
- O=C(O)Cc1ccc(O)c(O)c1: 9.81
- CC(=O)NCCc1c[nH]c2ccc(O)cc12: -0.372
- NS(=O)(=O)c1cccc2c1c([N+](=O)[O-])cc1nc(O)c(O)nc12: -15.2
- N[C@H](C(=O)O)[C@H]1C[C@@H]1C(=O)O: 2.9
- CCCn1c(=O)c2[nH]c(C3CCCC3)nc2n(CCC)c1=O: -6.17
- c1ccc(C(NCc2cccnc2)(c2ccccc2)c2ccccc2)cc1: 7.92
- C=C1C[C@@]23CC[C@H]4[C@@](C)(CCC[C@@]4(C)C(=O)O)[C@@H]2CC[C@]1(O)C3: -13.4
- N#C/C(=C\c1ccc(O)c(O)c1)C(=O)NCCc1ccccc1: -10.3
- Nc1ncnc2c1ncn2C1CCCC1: 4.78

Source of measurements: PubChem BioAssay (NCATS)
